- System: trachealis muscle
- PROTOCOL_NOTES: Inhibition of calcium dependent smooth muscle contraction (KCl-challenged trachea)
- Type: cell-based, dog
- RUN_PARAMETERS: Canis lupus familiaris; Table II; concentration 2.0 μM; read-out: Inhibition Trachea Muscle Contraction % Inhibition
MEASUREMENT_KIND: inhibition at 2 µM (%)
Answer in %, number only, no unit symbol.

[ask] What value of measured inhibition at 2 µM is listed for CC1=C(C(=O)OC2CCCSC2)C(c2cccc(Cl)c2Cl)C2=C(CCCCS2(=O)=O)N1 (stereo not shown) [4 2,3-Cl2C6 H3 drawing 14] ?
[reply] 54

[ask] // query: CC1=C(C(=O)OC2CCCSC2)C(c2c(F)c(F)c(F)c(F)c2F)C2=C(CCCCS2(=O)=O)N1 (stereo not shown) [4 C6 F5 drawing 13]
[reply] 53

[ask] Thanks! And CC1=C(C(=O)OCCCN(C)Cc2ccccc2)C(c2cccc([N+](=O)[O-])c2)C2=C(CCCCS2(=O)=O)N1 (stereo not shown) ?
[reply] 50

[ask] Similarly, CC1=C(C(=O)OCCN(C)Cc2ccccc2)C(c2cccc(C(F)(F)F)c2Cl)C2=C(CCCCCCS2(=O)=O)N1 (stereo not shown) ?
[reply] 46

[ask] Would you kindly repeat that for CC1=C(C(=O)OC2CCN(Cc3ccccc3)CC2)C(c2cccc([N+](=O)[O-])c2)C2=C(CCCCS2(=O)=O)N1 (stereo not shown) [4 3-NO2C6 H4 drawing 7] ?
[reply] 17

[ask] Can you handle CC1=C(C(=O)OCCO)C(c2cccc([N+](=O)[O-])c2)C2=C(CCCCS2(=O)=O)N1 (stereo not shown) next?
[reply] 23

[ask] Subsequent entry: CC1=C(C(=O)OCCN(C)Cc2ccccc2)C(c2ccccc2F)C2=C(CCCCS2(=O)=O)N1 (stereo not shown)
[reply] 84
